Quick reference for Fold chg. (IC50 against mouse chimeric ALULA) among some binders
molecular target: T1, human soluble αvβ5 protein (extracellular domains of human αv and β5 integrin subunits) (human, UniProt P06756 31-992; P18084 24-719); experiment: ALULA competition ELISA on soluble human αvβ5
T1 construct: also called biotin-αvβ5; hsαvβ5
T1 sequence (P06756 31-992 limits assumed, chain 1 of 2): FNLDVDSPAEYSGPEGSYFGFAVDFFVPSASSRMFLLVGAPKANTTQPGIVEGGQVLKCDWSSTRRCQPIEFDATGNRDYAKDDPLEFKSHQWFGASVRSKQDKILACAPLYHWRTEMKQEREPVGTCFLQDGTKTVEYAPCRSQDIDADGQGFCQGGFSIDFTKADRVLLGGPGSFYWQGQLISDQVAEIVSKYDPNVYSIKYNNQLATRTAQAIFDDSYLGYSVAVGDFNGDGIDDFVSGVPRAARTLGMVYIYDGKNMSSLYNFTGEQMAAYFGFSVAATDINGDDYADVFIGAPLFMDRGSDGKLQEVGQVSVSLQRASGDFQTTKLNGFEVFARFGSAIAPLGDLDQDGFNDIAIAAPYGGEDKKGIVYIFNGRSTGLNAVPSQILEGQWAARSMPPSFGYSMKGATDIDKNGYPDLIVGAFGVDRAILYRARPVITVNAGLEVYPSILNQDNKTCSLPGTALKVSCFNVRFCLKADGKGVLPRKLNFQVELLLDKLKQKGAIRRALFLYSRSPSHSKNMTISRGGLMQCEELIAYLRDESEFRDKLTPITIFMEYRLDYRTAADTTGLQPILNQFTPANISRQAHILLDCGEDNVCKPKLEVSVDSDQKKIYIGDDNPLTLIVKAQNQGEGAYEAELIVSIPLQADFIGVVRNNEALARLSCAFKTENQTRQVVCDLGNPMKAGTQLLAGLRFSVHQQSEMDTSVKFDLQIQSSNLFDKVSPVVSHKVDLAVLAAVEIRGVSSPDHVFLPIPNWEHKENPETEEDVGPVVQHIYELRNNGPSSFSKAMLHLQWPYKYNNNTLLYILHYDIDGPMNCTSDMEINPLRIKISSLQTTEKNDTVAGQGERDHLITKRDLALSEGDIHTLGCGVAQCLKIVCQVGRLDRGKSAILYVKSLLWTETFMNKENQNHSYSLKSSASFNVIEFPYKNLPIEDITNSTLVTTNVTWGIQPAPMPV
T1 sequence (P18084 24-719 limits assumed, chain 2 of 2): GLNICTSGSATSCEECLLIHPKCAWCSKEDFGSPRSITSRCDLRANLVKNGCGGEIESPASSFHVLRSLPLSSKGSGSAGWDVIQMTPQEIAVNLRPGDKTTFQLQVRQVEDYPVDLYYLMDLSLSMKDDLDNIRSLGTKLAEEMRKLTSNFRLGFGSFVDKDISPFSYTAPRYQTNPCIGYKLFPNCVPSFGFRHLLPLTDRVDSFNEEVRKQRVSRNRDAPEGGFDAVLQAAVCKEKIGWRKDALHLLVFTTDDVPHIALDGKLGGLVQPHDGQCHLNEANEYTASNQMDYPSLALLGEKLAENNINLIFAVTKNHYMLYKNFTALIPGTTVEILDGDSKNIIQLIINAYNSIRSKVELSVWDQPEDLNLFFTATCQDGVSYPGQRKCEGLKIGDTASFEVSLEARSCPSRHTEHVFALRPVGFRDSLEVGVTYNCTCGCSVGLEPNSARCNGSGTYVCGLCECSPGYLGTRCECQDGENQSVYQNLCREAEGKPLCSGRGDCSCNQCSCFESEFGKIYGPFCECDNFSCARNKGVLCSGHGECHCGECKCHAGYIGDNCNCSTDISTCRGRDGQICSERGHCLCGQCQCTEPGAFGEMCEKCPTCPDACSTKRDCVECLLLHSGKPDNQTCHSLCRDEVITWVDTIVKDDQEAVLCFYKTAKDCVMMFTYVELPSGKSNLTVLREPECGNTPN
Answer with a number only, understood to be in fold.

* VH2/VL2 Agly-IgG4.P (S228P)/IgG1 (N297Q) (antibody, V domains shown, also called VH2/VL2 (Agly-IgG4P/G1); H2/L2) VH: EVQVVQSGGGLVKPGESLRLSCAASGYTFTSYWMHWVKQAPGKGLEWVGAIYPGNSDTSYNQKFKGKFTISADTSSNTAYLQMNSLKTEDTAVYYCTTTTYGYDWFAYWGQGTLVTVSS VL: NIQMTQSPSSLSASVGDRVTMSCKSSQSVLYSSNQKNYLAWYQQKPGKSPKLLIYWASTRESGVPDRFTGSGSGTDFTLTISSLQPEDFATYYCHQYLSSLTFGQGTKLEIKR | 1.4
* VH5/VL2 Agly-IgG4.P (S228P)/IgG1 (N297Q) (antibody, V domains shown, also called VH5/VL2 (Agly-IgG4P/G1); H5/L2) VH: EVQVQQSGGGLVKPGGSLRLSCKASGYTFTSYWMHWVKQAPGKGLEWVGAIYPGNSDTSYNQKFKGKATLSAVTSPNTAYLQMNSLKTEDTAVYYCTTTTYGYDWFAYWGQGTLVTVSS VL: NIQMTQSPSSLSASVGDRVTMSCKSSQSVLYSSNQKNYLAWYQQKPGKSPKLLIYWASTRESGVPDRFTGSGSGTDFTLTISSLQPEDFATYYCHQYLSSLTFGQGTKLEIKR | 1
* ALULA-H4/L2-IgG4.P(S228P)/IgG1(N297Q) (antibody, V domains shown, Hybrid aglycosylated IgG4.P (S228P)/IgG1 (N297Q) heavy chain, human kappa light chain; also called VH4/VL2 (Agly-IgG4P/G1); H4/L2 antibody) VH: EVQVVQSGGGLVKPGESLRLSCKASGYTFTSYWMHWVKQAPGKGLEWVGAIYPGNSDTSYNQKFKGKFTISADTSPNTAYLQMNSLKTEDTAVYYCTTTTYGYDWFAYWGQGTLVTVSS VL: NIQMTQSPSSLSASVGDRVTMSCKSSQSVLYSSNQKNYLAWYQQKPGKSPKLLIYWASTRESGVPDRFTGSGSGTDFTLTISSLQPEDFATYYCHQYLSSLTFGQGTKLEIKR | 1

We next turn to a different binder, shown below.
Can you look up the measured Fold chg. (IC50 against mouse chimeric ALULA) of VH4/VL0 Agly-IgG4.P (S228P)/IgG1 (N297Q) (antibody, V domains shown, also called VH4/VL0 (Agly-IgG4P/G1); H4/L0) VH: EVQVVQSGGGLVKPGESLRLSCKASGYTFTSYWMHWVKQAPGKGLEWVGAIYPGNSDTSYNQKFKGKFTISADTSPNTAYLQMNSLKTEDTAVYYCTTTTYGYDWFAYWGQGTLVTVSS VL: DIQMTQSPSSVSASVGDRVTITCKSSQSVLYSSNQKNYLAWYQQKPGKAPKLLIYWASTRESGVPSRFSGSGSGTDFTLTISSLQPEDFATYYCHQYLSSLTFGQGTKVEIKR for me?
1
